Data origin: paper PMC2661907

Molecular target: 20S proteasome (chymotrypsin-like activity, β5 subunit) (Oryctolagus cuniculus, UniProt G1T4Q9)
Construct: gene PSMB5; purified rabbit 20S proteasome; with other subunits of the 20S proteasome
Sequence (G1T4Q9 1-263): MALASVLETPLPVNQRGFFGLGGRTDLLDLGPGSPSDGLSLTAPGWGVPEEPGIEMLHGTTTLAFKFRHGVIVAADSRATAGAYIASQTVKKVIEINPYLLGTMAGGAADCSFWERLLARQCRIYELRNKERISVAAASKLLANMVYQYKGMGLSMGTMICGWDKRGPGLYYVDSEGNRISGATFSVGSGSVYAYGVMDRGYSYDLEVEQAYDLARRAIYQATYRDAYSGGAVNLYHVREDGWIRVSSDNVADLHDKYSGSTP
Assay: fluorogenic peptide CT-like activity assay on purified
Format: biochemical
Measured quantity: pIC50
Please keep in mind that pIC50 is minus log10 of the molar concentration; only the number is needed.

Lookup: Quick one: pIC50 of CCC[CH2][Sn]([Cl])([CH2]CCC)[CH2]CCC [TBT, tributyltin chloride] ?
Found: 4.81
